Values from patent US7220875B2

experiment: in vivo; conditions: male, Sprague-Dawley, rat, plasma, oral, 25 mg per kg body weight

| Molecule | bioavailability |
| --- | --- |
| CC(C)c1cccc(C(C)C)c1O [Propofol, 2,6-diisopropylphenol] | 0.23% |

---

experiment: Enzymatic cleavage of prodrugs in vitro, rat plasma; assay type: in vitro ADME; conditions: substrate 2.0 μM, 37° C.
Quantity kind: % of Propofol Released from Propofol Prodrugs after 60 min. (%)

| Structure as smiles | Endpoint unit | Numeric readout |
| --- | --- | --- |
| CC(C)c1cccc(C(C)C)c1OC(=O)CC[C@H](N)C(=O)N[C@@H](C)C(=O)O | % | 50 |
| CC(C)c1cccc(C(C)C)c1OC(=O)C[C@H](NC(=O)[C@@H](N)Cc1ccc(O)cc1)C(=O)O | % | 2 |
| CC(C)c1cccc(C(C)C)c1OC(=O)CC[C@H](NC(=O)[C@@H](N)CC(N)=O)C(=O)O | % | 65 |
| CSCC[C@H](N)C(=O)N[C@@H](CC(=O)Oc1c(C(C)C)cccc1C(C)C)C(=O)O | % | 7 |
| CC(C)c1cccc(C(C)C)c1OC(=O)OC[C@H](NC(=O)[C@H](C)N)C(=O)O | % | 30 |
| CC(C)c1cccc(C(C)C)c1OC(=O)C[C@H](NC(=O)[C@H](C)N)C(=O)O | % | 3 |
